tested on: BT-549 breast; experiment: NCI tumour cell line growth inhibition, 48 h
Assay Endpoint: TGI

In [3]: df
Out[3]:
                                  structure  recorded_value
0  COc1cccc(C(=O)N[C@@H]2[C@H](O)[C@@H](CO)O[C@H]2n2cnc3c(N)ncnc32)c1        > 100 µM
1  O=C1c2ccn(CCCCN(CCO)CCO)c2C(=O)c2c1c(O)c1ccccc1c2O         60.9 µM
2                              NCCCCCNOCCCN        > 100 µM
3  Nc1cc(-c2ccccc2)n(C(=O)Nc2ccc(Oc3ccccc3)cc2)n1        > 100 µM
4  COC(=O)Nc1nc2ccc(S(=O)(=O)c3ccc(NC(=O)Nc4cc(C(F)(F)F)ccc4F)cc3)cc2[nH]1         > 25 µM
5    Cc1nc(Nc2nc3ccccc3[nH]2)[nH]c(=O)c1CCO        > 100 µM
6  Nc1cc(N)c(N=Nc2cccc3c(S(=O)(=O)O)cccc23)cc1N=Nc1cc([N+](=O)[O-])ccc1O        > 100 µM
7    N#Cc1c(N2CCOCC2)ncn(-c2ccc(Cl)cc2)c1=O        > 100 µM
8      CNC(=O)c1cncc(/C=C/c2c(Cl)cccc2Cl)c1         > 25 µM
9                 NCCC1([N+](=O)[O-])CCNCC1        > 100 µM

Recorded values, source PubChem BioAssay (NCI).
